target: Leucine aminopeptidase (Plasmodium falciparum 3D7, UniProt Q8IL11); assay: P. falciparum M17LAP inhibitors, primary screen, biochemical, fluorogenic H-Leu-NHMec substrate, 1536-well (AID 1619); type: functional
Activity calls are given as the source filed them.
Overview of recorded IC50 for various compounds

Solved entries:
compound	reading
N#CC1=C(N)Oc2[nH]nc(-c3ccccc3)c2C1c1ccsc1 (stereo unspecified)	64.5 µM (active)
Cc1nc2c([nH]1)OC(N)=C(C#N)C21CCN(Cc2ccccc2)CC1	63.2 µM (active)
COc1ccc(-c2nc(N3CCOCC3)nc3n[nH]c(N)c23)cc1	8.11 µM (active)
Cn1c(O)cc(=O)nc1SCC(=O)Nc1ccccc1	17.1 µM (active)
O=C(CSc1nc[nH]n1)Nc1ccc([N+](=O)[O-])cc1Br	19.9 µM (active)

Lab note: next compound to report on.
Task: Need IC50 of CC1=NN(CCC#N)C(=O)/C1=C/c1ccc(N(C)C)cc1 , thanks.
Result: 120 µM (active)

---

target: Induced myeloid leukemia cell differentiation protein Mcl-1 (Homo sapiens); assay type: functional
The source made the active and inactive calls.
Overview of recorded IC50 for various molecules

Solved entries:
entrySmiles	IC50
O=C(Nc1ccc2nc(-c3ccco3)c(-c3ccco3)nc2c1)NC1CC1	2920 nM (active)
O=C1Nc2ccc(Br)cc2/C1=C1/SC(=S)N(NS(=O)(=O)c2ccccc2)C1=O	3000 nM (not active)
COc1cc(/C=C2\CC/C(=C\c3cc(OC)c(O)c(OC)c3)C2=O)cc(OC)c1O	5750 nM (active)

Lab note: next molecule to report on.
Task: Please state recorded IC50 (tested on Induced myeloid leukemia cell differentiation protein Mcl-1 (Homo sapiens)) of Cn1c(SCC(=O)Nc2ccc3nc(SCC(=O)N4CCCC4)sc3c2)nnc1-c1ccccc1
Result: 2830 nM (active)

---

assay: NIH-3T3 fibroblast cytotoxicity, dose response, cytotoxicity control, cell-based, fluorescence, Alamar Blue, secondary assay (AID 2327); format: functional;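 note: NIH-3T3 mouse fibroblasts cultured with fluconazole at 8 µg/mL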
Active and inactive are the calls of the source.
Overview of recorded EC50 for various molecules

molecule	EC50
O=C(CNS(=O)(=O)c1ccc(Br)s1)NCC1COc2ccccc2O1 (centres undefined)	> 150 µM (inactive)

Task: Need EC50 of CC(=O)c1c(C)nc(-c2cccc([N+](=O)[O-])c2)n1O , thanks.
Result: 69.2 µM (active)

Task: Need EC50 of CC[n+]1c(/C=C/C=C/c2ccc(N(C)C)cc2)sc2ccccc21.[O-][Cl+3]([O-])([O-])[O-] , thanks.
Result: 82.9 µM (active)

Task: Need EC50 of Cc1ccc(C(C)C)c(OCc2n[n+](CC(=O)c3ccc(OC(F)F)cc3)c3n2CCCCC3)c1 , thanks.
Result: > 150 µM (inactive)

---

Overview of recorded EC50 for various molecules
target: UniProt:P10520; test: viability-normalized secreted streptokinase activity reduction – plasminogen activation absorbance, OD405, dose response (AID 1914); type: functional, Streptococcus pyogenes M1 GAS;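 note: secreted streptokinase activity via plasminogen activation per viability signal from cell pellet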
Active and inactive are the calls of the source.

Solved entries:
molecule	assaySystem	EC50
CCOc1ccc(NC(=O)c2ccc3c(=O)n(-c4ccc(OC)cc4OC)c(=S)[nH]c3c2)cc1	UniProt:P10520	> 150 µM (not active)
CCCCNc1c(-c2cccc(-c3ccc(OC)cc3)c2)nc2ccc(C)cn12	UniProt:P10520	7.94 µM (active)
O=C(NC(NC(=S)Nc1ccc(Cl)c(Cl)c1)C(Cl)(Cl)Cl)c1ccco1 (stereo not drawn)	UniProt:P10520	10.9 µM (active)
CCc1ccc2nc(N3C(=O)C(O)=C(C(=O)c4ccco4)C3c3cccs3)sc2c1 (stereo not drawn)	UniProt:P10520	> 150 µM (not active)
Cc1ccc(-c2cc(C(=O)Nc3ccc(S(=O)(=O)Nc4cc(C)on4)cc3)c3ccccc3n2)c(C)c1	UniProt:P10520	9.4 µM (active)
Cc1ccc(Oc2ccc3c(c2)C(=O)N(c2ccc(S(=O)(=O)Nc4nccs4)cc2)C3=O)cc1	UniProt:P10520	> 150 µM (not active)
CC(NS(=O)(=O)/C=C/c1ccccc1)C(=O)O (stereo not drawn)	UniProt:P10520	> 150 µM (not active)

Lab note: next molecule to report on.
Task: Need EC50 of CCCCn1c(=O)c(C(=O)NCc2ccccc2Cl)c(O)c2ccccc21 , thanks.
Result: 5.97 µM (inconclusive)
